All values here come from ChEMBL document CHEMBL1201862.

Entries and their measured GI50 follow.
system: HOP-92; experiment: NCI tumour cell line growth inhibition, 48 h
Calls of active or inactive are those of the source. No stated cut-off is given here; in the data, active = GI50 up to about 1.1 µM and inactive = higher.

A selection of reference data follows.
CCCC1CCC(=C2C(=O)CCC2=O)O1 (stereo not drawn) ... > 100 µM (inactive)
CCCCCCCCCCCCCC(=S)N/C=C/OC ... 25.8 µM (inactive)

Problem: Sample `C/C(=N\NS(=O)(=O)c1ccc([N+](=O)[O-])cc1)c1ccc[n+]([O-])n1` — what was its GI50?
Solution: 2.94 µM (inactive)

----------
system: HCT-116; test: NCI tumour cell line growth inhibition, 48 h
Activity calls are given as the source filed them. No stated cut-off is given here; in the data, active = GI50 up to about 1.1 µM and inactive = higher.
The reply should name one outcome from active, inactive

CCOC(=O)c1c(SC(=O)c2cc(OC)c(OC)c(OC)c2)n(-c2ccccc2)c(=S)n(-c2ccccc2)c1=O ... inactive
CC(=O)NC1C(OCc2ccccc2)OC(CO)C(O)C1OC(C)C(=O)N[C@@H](C)C(=O)N[C@H](CCC(=O)OCCNc1c2ccccc2nc2cccc([N+](=O)[O-])c12)C(N)=O (some centres undefined) ... active
O=C1C=C(Nc2ccc(Cl)cc2C(=O)c2ccccc2)c2ccccc2C1=O ... inactive
CN(C)CCN(C)CC1COC(C)(C)O1 (centres undefined) ... inactive

Problem: Look up the recorded call for `O=C(/C=C/c1csc(-c2ccccc2)n1)NCc1ccc(C(=O)NCc2ccccc2)cc1` in this test.
Solution: inactive

Problem: Look up the recorded call for `O=[N+]([O-])c1ccc(-c2ccc(-c3csc(Nc4ccccn4)n3)o2)cc1` in this test.
Solution: inactive

Problem: Look up the recorded call for `O=C(/C=N/c1ccccc1[S-])c1ccco1.O=C(/C=N/c1ccccc1[S-])c1ccco1.[Zn+2]` in this test.
Solution: inactive

Problem: Look up the recorded call for `CCOC(=O)c1nc2ccc(C(F)(F)F)cc2nc1Oc1ccc(F)cc1` in this test.
Solution: inactive

Problem: Look up the recorded call for `CC1(C)CC(=O)C(=CNC(=O)c2ccncc2)C(=O)C1` in this test.
Solution: inactive
